The entries below come with measured IC50 values attached.
measuredTarget: TBK1 (Homo sapiens (Human), UniProt Q9UHD2)
Sequence (Q9UHD2 whole entry): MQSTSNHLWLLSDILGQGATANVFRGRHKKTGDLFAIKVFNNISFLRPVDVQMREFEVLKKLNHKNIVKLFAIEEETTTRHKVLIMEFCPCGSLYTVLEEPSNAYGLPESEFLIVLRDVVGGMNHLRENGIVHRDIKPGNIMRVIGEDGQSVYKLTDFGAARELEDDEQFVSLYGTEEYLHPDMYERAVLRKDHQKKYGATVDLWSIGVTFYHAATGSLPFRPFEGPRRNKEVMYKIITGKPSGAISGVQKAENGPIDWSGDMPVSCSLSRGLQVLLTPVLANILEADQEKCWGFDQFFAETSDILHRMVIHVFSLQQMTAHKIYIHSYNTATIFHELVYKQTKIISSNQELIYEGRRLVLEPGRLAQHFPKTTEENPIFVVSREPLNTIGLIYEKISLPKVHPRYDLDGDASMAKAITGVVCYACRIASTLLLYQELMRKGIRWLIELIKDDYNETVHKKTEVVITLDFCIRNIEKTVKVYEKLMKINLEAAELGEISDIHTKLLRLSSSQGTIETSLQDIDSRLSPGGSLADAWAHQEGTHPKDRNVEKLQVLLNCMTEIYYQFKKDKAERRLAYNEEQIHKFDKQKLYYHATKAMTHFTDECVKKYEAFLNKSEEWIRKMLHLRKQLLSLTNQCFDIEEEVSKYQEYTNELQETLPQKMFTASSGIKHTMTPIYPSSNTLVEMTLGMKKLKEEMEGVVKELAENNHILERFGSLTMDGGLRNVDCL
testDescription: TBK1 low ATP kinase assay (in vitro assay 1)
Type: biochemical
condition: in vitro assay 1, read-out: TBK1 low ATP kinase assay IC50
Lab book: enter the figure in nM, no units written.

Use these answered entries as a reference point.
CC(C)(C)OC(=O)N1CCN(Cc2ccnc(Nc3nc4ccc(-c5cc(NC6CC6)ncn5)cc4[nH]3)c2)CC1 [Example 82.01]: 3.6
CC(C)Nc1ncnc(-c2ccc3nc(Nc4cc(CN5CCN(C(=O)C6CC6)CC5)ccn4)[nH]c3c2)c1F [Example 193.03]: 17.8
COc1nccc(-c2ccc3nc(Nc4cc(CN5CCN(C(=O)CC6CC6)CC5)ccn4)[nH]c3c2)n1 [Example 25.01.03]: 96.7

Kindly consider the entry below.
Entry under review: CC(c1ccnc(Nc2nc3ccc(-c4cnn(CC5(Cl)CC5)c4)cc3[nH]2)c1)N1CCN(C(=O)CC(F)(F)F)CC1 (single isomer, unassigned) [Example 69.02] . Reported IC50? 0.64
